target-or-system: Cellular tumor antigen p53 (Homo sapiens) (UniProt P04637)
Sequence (P04637 whole entry, looked up): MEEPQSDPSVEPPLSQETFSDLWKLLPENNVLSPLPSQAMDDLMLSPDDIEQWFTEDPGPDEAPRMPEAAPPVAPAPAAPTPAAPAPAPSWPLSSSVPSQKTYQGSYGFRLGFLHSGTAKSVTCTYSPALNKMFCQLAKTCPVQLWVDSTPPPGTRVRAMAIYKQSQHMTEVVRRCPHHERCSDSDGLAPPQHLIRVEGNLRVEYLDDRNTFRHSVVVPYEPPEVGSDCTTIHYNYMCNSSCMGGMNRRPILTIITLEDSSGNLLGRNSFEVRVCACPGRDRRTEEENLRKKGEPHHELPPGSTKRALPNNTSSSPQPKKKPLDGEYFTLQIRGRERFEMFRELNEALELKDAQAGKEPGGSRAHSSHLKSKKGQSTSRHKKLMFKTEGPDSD
test: TOX21_p53_BLA_p2_ratio: Tox21 HCT-116 p53 Agonism Beta-lactamase Assay, Ratio, Phase 2 (AID 2283592)
Inconclusive results are not listed. Active and inactive are the calls of the source. How the source made its calls: active means hit-call score of the fitted dose curve at least 0.9, where 1 is the maximum; inconclusive means response in the unintended direction; inactive means score below 0.9.
property-name: outcome

c1ccncc1 ... inactive
CC(C)[C@H](N)C(=O)OCCOCn1cnc2c(=O)[nH]c(N)nc21 ... inactive
CC(C)(c1ccccc1)c1ccccc1 ... inactive
C[S+](C)CCC(N)C(=O)O (configuration not stated) ... inactive
C#C[C@]1(O)CC[C@H]2[C@@H]3CCC4=C/C(=N/O)CC[C@@H]4[C@H]3CC[C@@]21CC ... inactive
NC(CSCC(=O)O)C(=O)O (configuration not stated) ... inactive
Nc1ccc(S(=O)(=O)Nc2cnc3ccccc3n2)cc1 ... inactive

Origin of the recorded values: PubChem BioAssay (EPA / NIEHS)
